# test.summary: NCI Yeast Anticancer Drug Screen. Data for the cln2 rad14 strain (AID 165)
# condition.info: S. cerevisiae cln2 rad14 strain, at 50.0 µM
# Protocol: Growth inhibition of yeast strains with defined genetic alterations is measured as a screen for potential anti-cancer activity. Selected strains with alterations in DNA damage repair or cell cycle control were exposed to compounds and growth inhibition was measured relative to vehicle treated controls. The strain used in this assay is cln2 rad14
About 79,000 compounds went through this panel and 15% of them were active in at least one assay; those are over-represented in the sample as a whole. Active and inactive are the calls of the source. Rule as the data show it: active = growth inhibition above about 70%; inactive = the rest.
Could you please pick one outcome from this set? active, inactive

Q: Entry O=C1C(CCl)(CCl)CCC12CNC(Cl)(Cl)C2 (stereo unspecified) : call = ?
Ans: inactive

Q: Entry `COC(=O)[C@]1(C)CCC[C@]2(C)[C@H]3CC4OO[C@@]3(CC[C@H]21)[C@H]1O[C@@]41C(C)C` : call = ?
Ans: active

Q: Entry `O=C(CBr)Nc1ccccc1` : call = ?
Ans: active

Q: Entry `CCCCC[N+]1=Cc2cc(O)c(O)cc2CC1` : call = ?
Ans: inactive

Q: Entry CC(C)CC1N=C(NN=C2CCCCC2)SP1(=O)NNc1ncccn1 (stereo unspecified) : call = ?
Ans: inactive

Q: Entry `CC(=O)CC(C)=O.CC(=O)CC(C)=O.CC(=O)CC(C)=O.[Cr]` : call = ?
Ans: inactive

Q: Entry `CC(C)[N+](C)(CCC(C(=O)N(C)C)(c1ccccc1)c1ccccc1)C(C)C` : call = ?
Ans: inactive

Q: Entry `Oc1c(Cl)cc(Cl)cc1Cl.[Cu+2]` : call = ?
Ans: active

Q: Entry `CCCCCCC(=O)[O][Hg][c]1ccccc1` : call = ?
Ans: active

Q: Entry `C1CC[N-]CC1.CC(=N\O)/C(C)=N/O.CC(=N\O)/C(C)=N/O.[CH2-]c1ccccc1.[Co+2]` : call = ?
Ans: inactive

Q: Entry `CCCCCc1cc(/C=C2/N=C(c3ccc[nH]3)C=C2OC)[nH]c1C` : call = ?
Ans: active

Q: Entry O=c1cccc(C2CC(CO)C3CCCCN3C2)[nH]1 (stereo unspecified) : call = ?
Ans: inactive

Q: Entry O=C(NCC(O)CO)c1cc([N+](=O)[O-])cc([N+](=O)[O-])c1N(CCCl)CCCl (stereo unspecified) : call = ?
Ans: inactive

Q: Entry `COc1ccc2[nH]cc(CCN)c2c1` : call = ?
Ans: inactive

Q: Entry OC(CN(C1CCCCC1)C1CCCCC1)c1ccc(Cl)c(Cl)c1 (stereo unspecified) : call = ?
Ans: inactive

Q: Entry COc1ccc(P2(=S)Oc3ccc(C(c4ccccc4)(c4ccccc4)c4ccccc4)cc3O2)cc1 (stereo unspecified) : call = ?
Ans: inactive

Q: Entry `CCOC(OCC)c1ccc(N(C)C)cc1.[C-]#[O+].[C-]#[O+].[C-]#[O+].[Cr]` : call = ?
Ans: inactive

Q: Entry `CCC[As](=O)(O)CC(C)C` : call = ?
Ans: inactive

Q: Entry `ClCc1ccco1` : call = ?
Ans: inactive

Q: Entry `O=[As](O)(O)c1ccccc1Cl` : call = ?
Ans: inactive

Q: Entry `CN(C)CCc1ccc(Cl)cc1Cl` : call = ?
Ans: inactive

Q: Entry `O=[N+]([O-])c1ccc(CCl)cc1` : call = ?
Ans: inactive

Q: Entry `CC1(C)[C@@H]2CC[C@]1(C)[C@H](OC(=O)C(Cl)(Cl)Cl)C2` : call = ?
Ans: inactive

Q: Entry COC12C(COC(N)=O)C3=C(C(=O)C(C)=C(N)C3=O)N1CC1C2N1C (stereo unspecified) : call = ?
Ans: inactive

Q: Entry `C[Se]C([Se]C)=C([Se]C)[Se]C` : call = ?
Ans: inactive

Q: Entry CN(C)CCC(O)c1c[nH]c2ccccc12 (stereo unspecified) : call = ?
Ans: inactive

Q: Entry `CC1=C[C@H]2[C@@]3(O)[C@H](C)C[C@]4(OC(=O)C(C)C)[C@H]([C@@H]3C=C(CO)C[C@]2(O)C1=O)C4(C)C` : call = ?
Ans: inactive

Q: Entry `Cc1cc(N(CCCl)CCCl)ccc1C1N(Cc2ccc(N(C)C)cc2)CCN1Cc1ccc(N(C)C)cc1` : call = ?
Ans: inactive

Q: Entry COc1ccc(NC2Oc3cc4c(cc3C(c3cc(OC)c(OC)c(OC)c3)C2C)OCO4)cc1 (stereo unspecified) : call = ?
Ans: inactive

Q: Entry Oc1ccc(C=NCC2CCCC[N-]2)c(O)c1.Oc1ccc(C=NCC2CCCC[N-]2)c(O)c1.[Ni+2] (stereo unspecified) : call = ?
Ans: inactive

Q: Entry CCCCCCCCCC[C@@H](O)[C@@H]1CC[C@@H]([C@@H]2CC[C@@H]([C@@H](O)CCCCCCCCCC[C@H](O)CC3=CC(C)OC3=O)O2)O1 (stereo partly specified) : call = ?
Ans: inactive

Q: Entry `O=C(O)c1ccc(Cl)c(Cl)c1` : call = ?
Ans: inactive

Q: Entry `c1cc2c3c(cccc3c1)CC2` : call = ?
Ans: inactive

Q: Entry Cc1ccc(C(=O)C2C(c3ccccc3)N2Cc2ccccc2)cc1 (stereo unspecified) : call = ?
Ans: inactive

Q: Entry `CCc1ccc(CCN2CCCCC2)nc1` : call = ?
Ans: inactive

Q: Entry `CNC1(c2ccccc2)CC1` : call = ?
Ans: inactive

Just for reference, PubChem BioAssay (NCI) is where these values come from.
